system.under.test: Protein farnesyltransferase (Homo sapiens, UniProt P49354+P49356)
assay.name: Inhibition of recombinant human FTase using dansylated peptide Dansyl-GCAIM as substrate by fluorescence-based assay
Assay type: protein-complex assay
conditions.used: read-out: IC50
pIC50: −log10 of the molar value.
Below, each of the compounds is paired with its reported pIC50 value.
metric: pIC50

# compound, relation.symbol, value.measured
measured = [
    ("CCC(C)Sc1sc(C(=O)N[C@@H](CCC(N)=O)C(=O)O)c(-c2ccc(Cl)cc2)c1C#N (stereo not given in full)", "=", 7.12),
    ("CSCCNNC(=O)c1sc(SC(C)C)c(C#N)c1-c1ccc(Cl)cc1", "=", 5.72),
    ("COC(=O)[C@H](CCSC)NC(=S)c1sc(SC(C)C)c(C#N)c1-c1ccc(Cl)cc1", "=", 6.34),
    ("COC(=O)[C@H](CCSC)NC(=O)c1sc(SC(C)C)c(C#N)c1-c1cccc2c1oc1ccccc12", "<", 4.30),
    ("COC(=O)[C@@H](CCSC)NC(=O)c1sc(SC(C)C)c(C#N)c1-c1ccc(Cl)cc1", "<", 4.30),
]
